STUDY_TARGET: human V1a receptor (Homo sapiens, UniProt P37288)
Sequence (P37288 whole entry): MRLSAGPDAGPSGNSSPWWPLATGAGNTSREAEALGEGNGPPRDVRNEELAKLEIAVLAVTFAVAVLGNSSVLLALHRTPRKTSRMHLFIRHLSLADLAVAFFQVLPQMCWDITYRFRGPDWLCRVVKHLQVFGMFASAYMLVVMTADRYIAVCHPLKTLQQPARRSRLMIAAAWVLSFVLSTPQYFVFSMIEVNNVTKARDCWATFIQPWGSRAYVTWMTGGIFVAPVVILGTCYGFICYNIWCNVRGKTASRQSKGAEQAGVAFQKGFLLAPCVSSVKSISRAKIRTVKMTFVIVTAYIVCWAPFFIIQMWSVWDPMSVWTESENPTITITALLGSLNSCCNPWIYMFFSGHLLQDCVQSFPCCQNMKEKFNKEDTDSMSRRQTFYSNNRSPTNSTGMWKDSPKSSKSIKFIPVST
PROTOCOL_DETAILS: Cellular in vitro test for determination of the vasopressin receptor activity (aequorin luminescence, CHO cells), human V1a
CONDITION_INFO: cell line transfected with the human V1a receptor, antagonism of [Arg8]-vasopressin, read-out: IC50 hV1a
pIC50: −log10 of the molar value.
Mark YES for reported pIC50 of 7 or greater; mark NO for anything smaller.

Known results for molecules:
O=C(Cn1nc(-c2ccc(Cl)cc2)n(CC(O)C(F)(F)F)c1=O)N[C@@H]1C[C@@H]1c1cccc(C(F)(F)F)c1 (mixture of isomers) ... NO
C/C=C/n1c(-c2ccc(Cl)cc2)nn(CC(=O)NCc2cccc(C(F)(F)F)c2)c1=O ... YES
CC(C)(NC(=O)Cn1nc(-c2ccc(Cl)cc2)n(CCN2CCOCC2)c1=O)c1cccc(C(F)(F)F)c1 ... NO

Could you now look at the following molecule, please?
Query: Is the recorded value of pIC50 equal to or greater than 7 for this molecule? O=C(Cn1nc(-c2ccc(Cl)cc2)n(CC(O)C(F)(F)F)c1=O)NC(C(=O)N1CCOCC1)c1cccc(C(F)(F)F)c1 (stereo not shown)
Response: YES

---

STUDY_TARGET: human V1a receptor (Homo sapiens)
PROTOCOL_DETAILS: Cellular in vitro test for determination of the vasopressin receptor activity (aequorin luminescence, CHO cells), human V1a
CONDITION_INFO: cell line transfected with the human V1a receptor, antagonism of [Arg8]-vasopressin, read-out: IC50 hV1a
For each record, check the reported IC50: if it is below 90 nM write Satisfied, else write Not satisfied.

O=C(Cn1nc(-c2ccc(Cl)cc2)n(CC2CCCCC2)c1=O)NCc1cccc(C(F)(F)F)c1 ... Not satisfied

Query: Dear reviewer, please state whether O=C(Cn1nc(-c2ccc(Cl)cc2)n(Cc2ccccc2F)c1=O)NC1(Cc2ccccc2C(F)(F)F)CC1 has IC50 strictly beneath 90 nM.
Response: Satisfied

Query: Dear reviewer, please state whether CN(C)C(CNC(=O)Cn1nc(-c2ccc(Cl)cc2)n(Cc2ccccc2F)c1=O)c1ccccc1Cl (stereo not drawn) has IC50 strictly beneath 90 nM.
Response: Satisfied

Query: Dear reviewer, please state whether Cc1c(CNC(=O)Cn2nc(-c3ccc(Cl)cc3)n(C3CC3)c2=O)cccc1C(F)(F)F has IC50 strictly beneath 90 nM.
Response: Not satisfied

Query: Dear reviewer, please state whether CC(C)Cn1c(-c2ccc(Cl)s2)nn(CC(=O)NC(C)(C)c2cccc(C(F)(F)F)c2)c1=O has IC50 strictly beneath 90 nM.
Response: Not satisfied

Query: Dear reviewer, please state whether NC(=O)C(NC(=O)Cn1nc(-c2ccc(Cl)cc2)n(CC(O)C(F)(F)F)c1=O)c1cccc(C(F)(F)F)c1 (stereo not drawn) has IC50 strictly beneath 90 nM.
Response: Satisfied

Query: Dear reviewer, please state whether C#CCn1c(-c2ccc(Cl)cc2)nn(CC(=O)NCCc2ccccc2C(F)(F)F)c1=O has IC50 strictly beneath 90 nM.
Response: Satisfied

Query: Dear reviewer, please state whether O=C(Cn1nc(-c2ccc(Cl)cc2)n(Cc2ccccc2F)c1=O)NCc1cccc(C(F)(F)F)c1Cl has IC50 strictly beneath 90 nM.
Response: Satisfied

Query: Dear reviewer, please state whether CC(C)(CNC(=O)Cn1nc(-c2ccc(Cl)cc2)n(C2CC2)c1=O)c1ccccc1C(F)(F)F has IC50 strictly beneath 90 nM.
Response: Satisfied

Query: Dear reviewer, please state whether CC(C)(NC(=O)Cn1nc(-c2ccc(Cl)cc2)n(CC(=O)C(F)(F)F)c1=O)c1cccc(C(F)(F)F)c1 has IC50 strictly beneath 90 nM.
Response: Satisfied

Query: Dear reviewer, please state whether O=C(Cn1nc(-c2ccc(Cl)cc2)n(Cc2ccccc2F)c1=O)NCc1c(C(F)(F)F)cccc1C(F)(F)F has IC50 strictly beneath 90 nM.
Response: Not satisfied

Query: Dear reviewer, please state whether CCOC(=O)Cn1c(-c2ccc(Cl)cc2)nn(CC(=O)NCCc2ccccc2C(F)(F)F)c1=O has IC50 strictly beneath 90 nM.
Response: Satisfied

Query: Dear reviewer, please state whether COCCn1c(-c2ccc(Cl)cc2)nn(CC(=O)NC(C(=O)N(C)C)c2cccc(C(F)(F)F)c2)c1=O (stereo not drawn) has IC50 strictly beneath 90 nM.
Response: Satisfied

Query: Dear reviewer, please state whether CC(C)(NC(=O)Cn1nc(-c2ccc(Cl)cc2)n(C2CC2)c1=O)c1cccc(C(F)(F)F)c1 has IC50 strictly beneath 90 nM.
Response: Not satisfied

---

STUDY_TARGET: human V1a receptor (Homo sapiens)
PROTOCOL_DETAILS: Cellular in vitro test for determination of the vasopressin receptor activity (aequorin luminescence, CHO cells), human V1a
CONDITION_INFO: cell line transfected with the human V1a receptor, antagonism of [Arg8]-vasopressin, read-out: IC50 hV1a
Reported IC50 values follow for various molecules
Express the result in nM but write the number alone.

Some solved cases for reference:
CC(C)(NC(=O)Cn1nc(-c2ccc(Cl)cc2)n(CC(F)(F)F)c1=O)c1cccc(C(F)(F)F)c1 ... 611
CC(C)(NC(=O)Cn1cc(-c2ccc(Cl)cc2)n(CC(O)C(F)(F)F)c1=O)c1cccc(C(F)(F)F)c1 (single isomer, unassigned) ... 12

Query: What does the data say about its IC50? Entry: O=C(Cn1nc(-c2ccc(Cl)cc2)n(CC(O)C(F)(F)F)c1=O)NCCc1ccccc1OC(F)(F)F (stereo not drawn)
Response: 19

Query: What does the data say about its IC50? Entry: COCCn1c(-c2ccc(Cl)cc2)nn(CC(=O)NCC2(c3ccccc3F)CCCC2)c1=O
Response: 49

Query: What does the data say about its IC50? Entry: CC(C)Cn1c(-c2ccc(Cl)s2)nn(CC(=O)NCc2ccccc2C(F)(F)F)c1=O
Response: 38

Query: What does the data say about its IC50? Entry: O=C(Cn1nc(-c2ccccc2O)n(Cc2cccc(F)c2)c1=O)NCCc1ccccc1C(F)(F)F
Response: 30

Query: What does the data say about its IC50? Entry: O=C(Cn1nc(-c2ccc(Cl)cc2)n(CC(O)C(F)(F)F)c1=O)NC(C(=O)NC1CC1)c1cccc(C(F)(F)F)c1 (stereo not drawn)
Response: 4

Query: What does the data say about its IC50? Entry: CCC(=O)Cn1c(-c2ccc(Cl)cc2)nn(CC(=O)NC(C)(C)c2cccc(C(F)(F)F)c2)c1=O
Response: 93

Query: What does the data say about its IC50? Entry: C=C(C)Cn1c(-c2ccc(Cl)cc2)nn(CC(=O)NC(C)(C)c2cccc(C(F)(F)F)c2)c1=O
Response: 157

---

STUDY_TARGET: human V2 receptor (Homo sapiens, UniProt P30518)
Sequence (P30518 whole entry): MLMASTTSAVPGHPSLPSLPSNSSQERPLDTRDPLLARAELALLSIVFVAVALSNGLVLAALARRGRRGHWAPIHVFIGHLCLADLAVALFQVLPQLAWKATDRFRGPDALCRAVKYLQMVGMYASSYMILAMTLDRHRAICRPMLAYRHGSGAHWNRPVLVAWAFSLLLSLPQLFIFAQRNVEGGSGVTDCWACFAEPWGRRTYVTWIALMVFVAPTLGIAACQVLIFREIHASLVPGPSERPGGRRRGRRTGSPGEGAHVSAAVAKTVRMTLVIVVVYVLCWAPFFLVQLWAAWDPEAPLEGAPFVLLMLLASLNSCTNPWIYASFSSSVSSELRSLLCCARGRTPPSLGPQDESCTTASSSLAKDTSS
PROTOCOL_DETAILS: Cellular in vitro test for determination of the vasopressin receptor activity (aequorin luminescence, CHO cells), human V2
CONDITION_INFO: cell line transfected with the human V2 receptor, antagonism of [Arg8]-vasopressin, read-out: IC50 hV2
Reported IC50 values follow for various molecules
Express the result in µM but write the number alone.

Some solved cases for reference:
C#CCn1c(-c2ccc(Cl)cc2)nn(CC(=O)NCCc2ccccc2C(F)(F)F)c1=O ... 0.088
CC(C)Cn1c(-c2ccc(Cl)s2)nn(CC(=O)NC(C)(C)c2cccc(C(F)(F)F)c2)c1=O ... 0.008
CC(NC(=O)Cn1nc(-c2ccc(Cl)cc2)n(C2CC2)c1=O)c1ccccc1C(F)(F)F (centres unmarked) ... 0.18

Query: What does the data say about its IC50? Entry: O=C(CCn1nc(-c2ccc(Cl)cc2)n(C2CC2)c1=O)NCc1cccc(C(F)(F)F)c1
Response: 0.18

Query: What does the data say about its IC50? Entry: CCn1c(-c2ccc(Cl)cc2)nn(CC(=O)NCc2ccccc2C(F)(F)F)c1=O
Response: 1.1

---

STUDY_TARGET: human V2 receptor (Homo sapiens)
PROTOCOL_DETAILS: Cellular in vitro test for determination of the vasopressin receptor activity (aequorin luminescence, CHO cells), human V2
CONDITION_INFO: cell line transfected with the human V2 receptor, antagonism of [Arg8]-vasopressin, read-out: IC50 hV2
pIC50: −log10 of the molar value.
Consider the following partition of reported pIC50 into named classes: LOW = under 7, MEDIUM = from 7 up to 8, HIGH = 8 and over

Known results for molecules:
CC(NC(=O)Cn1nc(-c2ccc(Cl)s2)n(Cc2ccccc2F)c1=O)c1nccc2ccccc12 (stereo not shown) ... LOW
CC(C)(NC(=O)Cn1nc(-c2ccc(Cl)cc2)n(Cc2cccc(C(=O)O)c2)c1=O)c1cccc(C(F)(F)F)c1 ... HIGH
COc1cc(Cl)ccc1-c1nn(CC(=O)NC(C)(C)c2cccc(C(F)(F)F)c2)c(=O)n1Cc1cccc(F)c1 ... HIGH

Query: Exam item: assign CC(=O)Cn1c(-c2ccc(Cl)cc2)nn(CC(=O)NCc2cccc(C(F)(F)F)c2)c1=O to the correct category.
Response: MEDIUM

Query: Exam item: assign CC(C)(NC(=O)Cn1nc(-c2ccc(Cl)cc2)n(CC(O)C(F)(F)F)c1=O)c1cccc(C(F)(F)F)c1 (single isomer, unassigned) to the correct category.
Response: HIGH

Query: Exam item: assign CC(C(=O)NC(C)(C)c1cccc(C(F)(F)F)c1)n1cc(-c2ccc(Cl)cc2)n(C2CC2)c1=O (stereo not shown) to the correct category.
Response: LOW

Query: Exam item: assign C/C=C/n1c(-c2ccc(Cl)cc2)nn(CC(=O)NCc2cccc(C(F)(F)F)c2)c1=O to the correct category.
Response: MEDIUM

Query: Exam item: assign O=C(Cn1cc(-c2ccc(Cl)cc2)n(CC2CC2)c1=O)NCCc1ccccc1C(F)(F)F to the correct category.
Response: LOW

Query: Exam item: assign Cc1c(CNC(=O)Cn2nc(-c3ccc(Cl)cc3)n(C3CC3)c2=O)cccc1C(F)(F)F to the correct category.
Response: MEDIUM

Query: Exam item: assign CC(C)(NC(=O)Cn1nc(-c2ccc(Cl)cc2)n(CCN2CCOCC2)c1=O)c1cccc(C(F)(F)F)c1 to the correct category.
Response: MEDIUM
